# test method notes: Cytotoxicity against CHO cells assessed as reduction in cell viability after 24 hrs by MTT assay
# Assay type: cell-based, Cricetulus griseus
# condition summary: chinese hamster
Each entry below carries its recorded CC50 at 24 h.

{"columns": ["molecule", "reported relation", "CC50 at 24 h (µM)"],
 "data": [
  ["COc1cccc2c1C(=O)c1c(O)c3c(c(O)c1C2=O)C[C@@](O)(C(=O)CO)C[C@@H]3O[C@H]1C[C@H](N)[C@H](O)[C@H](C)O1", "=", 4.65],
  ["CC1Cn2c(nc([N+](=O)[O-])c2-c2ccc(OC(F)(F)F)cc2)O1 (stereo not given)", ">", 125],
  ["CC1Cn2c(nc([N+](=O)[O-])c2-c2ccccc2)O1 (stereo not given)", ">", 500],
  ["COc1cc(-c2c([N+](=O)[O-])nc3n2CC(C)O3)cc(OC)c1OC (stereo not given)", ">", 125],
  ["CC1Cn2c(nc([N+](=O)[O-])c2-c2ccc(C=O)cc2)O1 (stereo not given)", "=", 255],
  ["CC1Cn2c(nc([N+](=O)[O-])c2-c2cccc(C(F)(F)F)c2)O1 (stereo not given)", ">", 250],
  ["CC1Cn2c(nc([N+](=O)[O-])c2-c2cccc(C#N)c2)O1 (stereo not given)", ">", 500],
  ["Cc1ccc(C#Cc2c([N+](=O)[O-])nc3n2CC(C)O3)cc1 (stereo not given)", "=", 5.47],
  ["Cc1ccc(-c2c([N+](=O)[O-])nc3n2CC(C)O3)cc1 (stereo not given)", ">", 250],
  ["CC1Cn2c(nc([N+](=O)[O-])c2Br)O1 (stereo not given)", "=", 9.19]
]}

---

# test method notes: Cytotoxicity against CHO cells assessed as reduction in cell viability after 24 hrs by MTT assay
# Format: cell-based, Cricetulus griseus
# condition summary: chinese hamster
Friendly reminder: CC50 at 24 h below 7 µM is YES, at or above is NO.

{"columns": ["compound", "label value"],
 "data": [
  ["CC1Cn2c(nc([N+](=O)[O-])c2C#Cc2cccc(N)c2)O1 (stereo unspecified)", "NO"],
  ["CC1Cn2c(nc([N+](=O)[O-])c2C#CC2CC2)O1 (stereo unspecified)", "YES"],
  ["CC1Cn2c(nc([N+](=O)[O-])c2C#Cc2ccccc2)O1 (stereo unspecified)", "YES"],
  ["COc1cccc(C#Cc2c([N+](=O)[O-])nc3n2CC(C)O3)c1 (stereo unspecified)", "NO"],
  ["CC1Cn2c(nc([N+](=O)[O-])c2-c2ccc(CO)cc2)O1 (stereo unspecified)", "NO"],
  ["Cc1ccc(-c2c([N+](=O)[O-])nc3n2CC(C)O3)s1 (stereo unspecified)", "NO"],
  ["CC1Cn2cc([N+](=O)[O-])nc2O1 (stereo unspecified)", "NO"],
  ["CC1Cn2c(nc([N+](=O)[O-])c2-c2ccc(Cl)cc2)O1 (stereo unspecified)", "NO"],
  ["CC1Cn2c(nc([N+](=O)[O-])c2C#Cc2ccc(CO)cc2)O1 (stereo unspecified)", "NO"],
  ["CCCOc1ccc(-c2c([N+](=O)[O-])nc3n2CC(C)O3)cc1 (stereo unspecified)", "NO"],
  ["CC1Cn2c(nc([N+](=O)[O-])c2C#Cc2ccc(C(C)(C)C)cc2)O1 (stereo unspecified)", "YES"]
]}
